Test system: fleabane (Erigeron canadiensis)
Experiment: Example 3: herbicidal action; whole plants sprayed with B, component A applied as local leaf treatment, high light
Assay type: in vivo, Erigeron canadensis
Details: ERICA; 8 DAT; rate 500 g/ha (B alone)
Catalogue of % damage readings, one per entry.
test.readout: % damage

# molecule, value.measured
rows = [
    ("CCCCC(CC)COC(=O)c1ccc(Nc2nc(Nc3ccc(C(=O)OCC(CC)CCCC)cc3)nc(Nc3ccc(C(=O)OCC(CC)CCCC)cc3)n2)cc1 (stereo not drawn)", "0%"),
    ("CCCCC(CC)COC(=O)C=Cc1ccc(OC)cc1 (stereo not drawn) [B.1.5.1, 2-ethylhexyl 4-methoxycinnamate]", "0%"),
    ("CNC(=O)c1ccc(Nc2nc(NC)nc(Nc3ccc(/C=C/c4ccc(Nc5nc(NC)nc(Nc6ccc(C(=O)NC)cc6)n5)cc4S(=O)(=O)[O-])c(S(=O)(=O)[O-])c3)n2)cc1.[Na+].[Na+]", "0%"),
]
